Reported composite z-score values for the following compounds.
# test system: Follistatin-related protein 3 (Homo sapiens) (UniProt O95633)
# Sequence (O95633 whole entry, looked up): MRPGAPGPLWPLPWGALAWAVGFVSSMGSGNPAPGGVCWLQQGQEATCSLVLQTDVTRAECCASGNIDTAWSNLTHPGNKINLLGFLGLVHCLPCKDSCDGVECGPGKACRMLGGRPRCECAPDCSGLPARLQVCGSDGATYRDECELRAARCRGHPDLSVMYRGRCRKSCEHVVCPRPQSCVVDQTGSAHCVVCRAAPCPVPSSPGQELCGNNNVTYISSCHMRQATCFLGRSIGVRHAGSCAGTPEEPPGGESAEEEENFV
# protocol text: FSTL3 binders on small-molecule microarrays, primary screen, biochemical, small-molecule microarray, 635 nm fluorescence (AID 1105);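 also: score merges emission near 667 nm and signal to noise per printed spot across three slides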
# assay context: FSTL3 binding, higher = more signal
experimental endpoint: composite z-score

compound string	measured
C=C(COC)/C(=C/C[C@H](OC(C)=O)c1ccc(CO)o1)c1cnc2ccccc2c1	1.48
C=CCC1(CC=C)C[C@H]2CO[C@H](c3ccc(OC)cc3)N2C1=O	0.576
C=C[C@H](OC)[C@@H](OC(=O)Nc1ccc(OC)cc1)c1ccc(OC)c(O)c1	-1.18
NC(=O)NCC#Cc1ccc2c(c1)[C@]1(C(=O)N2)[C@H](c2ccc(OCCO)cc2)N2[C@H](c3ccccc3)[C@H](c3ccccc3)OC(=O)[C@H]2[C@@H]1C(=O)Nc1nc2ccccc2s1	0.224
COc1ccc(C(=O)Nc2cccc(CN3C(=O)[C@@]4(O[C@@H](CCO)[C@H]([Si](C)(C)c5ccc(OC)cc5)[C@H]4C)c4ccccc43)c2)cc1	0.131

----------
# System: XIP peptide (Xip251-270)
# protocol text: small-molecule binders of XIP peptide, primary screen, biochemical, small-molecule microarray, fluorescence 635/667 nm, 0.5 µg/mL protein (AID 1183)
# assay context: small-molecule microarray binding, fluorescence 635 nm; higher = more signal
Label rule, in plain words: composite z-score of 0.7 and up is rule met, under 0.7 is rule not met.

compound string	category label
O=C1c2ccccc2[C@@]2(Cc3ccccc3N(CC(F)(F)F)C2=O)[C@H](c2ccc(CO)cc2)N1Cc1ccccc1C(F)(F)F	rule not met
C=CC[C@]1(C(=O)N(C)C)N=C(c2ccc(OCCCO)cc2)O[C@H]1c1ccccc1CN=[N+]=[N-]	rule not met
COCCCNC(=O)[C@@]1(CCS(=O)(=O)c2ccccc2)N=C(c2ccc(OCCCO)cc2)O[C@H]1c1ccccc1CN=[N+]=[N-]	rule not met
[N-]=[N+]=Nc1ccccc1[C@H]1OC(c2ccc(OCCCO)cc2)=N[C@@]1(Cc1ccccc1)C(N)=O	rule not met
CC(C)(C)OC(=O)CC[C@]1(C(=O)NCc2ccccc2)N=C(c2ccc(OCCCO)cc2)O[C@H]1c1ccccc1N=[N+]=[N-]	rule met
O=C1O[C@@H](c2ccccc2)[C@@H](c2ccccc2)N2[C@@H](c3ccc(OCCO)cc3)[C@]3(C(=O)Nc4ccc(C#CC5(O)CCCCCC5)cc43)[C@@H](C(=O)NC[C@H](O)c3ccccc3)[C@H]12	rule met
C=CC[C@@]1(C(=O)NCc2ccccc2)N=C(c2ccc(OCCCO)cc2)O[C@@H]1c1ccccc1	rule met

----------
# protocol text: small-molecule microarray binders of probe aEGFR, primary screen, biochemical, biotinylated probe, 635/667 nm fluorescence (AID 1097);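 also: probe is a biotinylated anti-EGFR antibody binding compounds printed on slides; score combines fluorescence near 667 nm and signal to noise of each spot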
# assay context: higher = more signal

compound string	composite z-score
COc1ccc(CCNC(=O)[C@@]2(Sc3ccc(C)cc3)CC(=O)N(Cc3ccccc3)[C@@H]2c2ccc(CO)cc2I)cc1	-0.119
C=CCNC(=O)[C@@H]1[C@H]2C(=O)O[C@H](c3ccccc3)[C@H](c3ccccc3)N2[C@H](c2ccc(O)cc2)[C@@]12C(=O)Nc1ccc(C#Cc3ccc(OC)cc3)cc12	-0.0019
CCCC[C@@H](O)C1=C(C)C[C@H]2C(=O)N(C)C(=O)[C@H]2[C@H]1CO	-0.21
C=CCNC(=O)[C@H]1[C@@H]2C(=O)O[C@@H](c3ccccc3)[C@@H](c3ccccc3)N2[C@@H](c2ccc(OCCO)cc2)[C@]12C(=O)Nc1ccc(C#CCCO)cc12	-0.087
CCOC(=O)C[C@H]1[C@H](OC(=O)c2cc3ccccc3oc2=O)[C@@H](NC(=O)c2ccccc2)c2cc(OCCCO)ccc2N1C(=O)Cc1ccc(OC)cc1	-0.113
CCOC(=O)C[C@H]1[C@H](OC(=O)c2ccc(C(=O)c3ccccc3)cc2)[C@@H](NC(=O)Cc2ccc(OC)cc2)c2cc(OCCCO)ccc2N1C(=O)Cc1ccc(OC)cc1	-0.0131
